// provenance: the Human Domainome abundance scans (Beltran et al. 2025)

B1: Gamma-crystallin C, residues 91 to 170; numbered along this chain, P07315 (parent)
chain: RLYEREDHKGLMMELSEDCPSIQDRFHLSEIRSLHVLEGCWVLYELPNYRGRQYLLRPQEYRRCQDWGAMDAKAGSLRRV

# Variants of: B1
# assayProtocol: abundance fitness (aPCA) (normalised: wild type 0, dead -1); higher = more abundant; growth selection in yeast, the domain comes from the species named
# appliedConditions: Homo sapiens
Use -0.2 as the dividing line for abundance fitness, with the line itself on the criterion met side and lower values as criterion not met.

A selection of reference data follows.
[[record]]
mutationstring = "L56G"
grouplabel = "criterion not met"

[[record]]
mutationstring = "W67E"
grouplabel = "criterion not met"

[[record]]
mutationstring = "S16M"
grouplabel = "criterion not met"

[[record]]
mutationstring = "S16G"
grouplabel = "criterion met"


Continue with the next variant.
IN: hey, is abundance fitness for this one >= -0.2? E14T
OUT: criterion met
